Tested on: Saccharomyces cerevisiae
Assay details: protein stability index of tFT-peptide fusion (C-terminal peptide) (PSI (0-1 scale)); higher = more stable (slower turnover)
Study conditions: genetic background: wild type; temperature: 30 C
Value type: protein stability index
One number for each entry.

Please review the entries below; each comes with its answer.
- Seq: "FSSSVMIIMKAS [NFT1 C-terminal 12 aa]"
  protein stability index: 0.115
- Seq: "FVDDNTPLEHVC [YDL086W C-terminal 12 aa]"
  protein stability index: 0.733
- Seq: "IKKYNITSPFLD [NSE4 C-terminal 12 aa]"
  protein stability index: 0.686
- Seq: "AMSARKLSAARK [PCH2 C-terminal 12 aa]"
  protein stability index: 0.666
- Seq: "EEDEEDEENEEQ [UBX2 C-terminal 12 aa]"
  protein stability index: 0.693
- Seq: "RELLKSLVLSHR [RSM23 C-terminal 12 aa]"
  protein stability index: 0.683

Give protein stability index for each listed item.
1. RQNDKGAIKKSK [YEA4 C-terminal 12 aa]
2. LATWDKQGNLKY [SRN2 C-terminal 12 aa]
3. KKYKFKLKFIKN [RNY1 C-terminal 12 aa]
4. YPVGQVDRDVCC [TAD3 C-terminal 12 aa]
5. LSKDGIYTAIPK [PAU15 C-terminal 12 aa]
6. SASSTPSSTTMS [SPT20 C-terminal 12 aa]
7. ARTALKRLIDDQ [MSA1 C-terminal 12 aa]
8. NVFNPDQPRMGP [YLR154W-A C-terminal 12 aa]

1. 0.719
2. 0.696
3. 0.642
4. 0.685
5. 0.767
6. 0.681
7. 0.698
8. 0.711

----------
Exercise: state measured protein stability index for each of the sequences provided.
Test system: Saccharomyces cerevisiae
Assay details: protein stability index of tFT-peptide fusion (C-terminal peptide) (PSI (0-1 scale)); higher = more stable (slower turnover)
Study conditions: genetic background: das1 deletion; temperature: 30 C
Numbers only.

- Seq: "KKNGYIYFYTRC [UBP14 C-terminal 12 aa]"
  protein stability index: 0.69
- Seq: "QFFFTSRQKNYV [ERP4 C-terminal 12 aa]"
  protein stability index: 0.707
- Seq: "TPLPGLSWPFNE [YIL014C-A C-terminal 12 aa]"
  protein stability index: 0.74
- Seq: "LIAEILLARNLI [HOM2 C-terminal 12 aa]"
  protein stability index: 0.71
- Seq: "RVKILHRDDTKK [UPF3 C-terminal 12 aa]"
  protein stability index: 0.707

Give protein stability index for each listed item.
1. LVDIITGASSLG [ATP3 C-terminal 12 aa]
2. EYMIERCRGHVL [YPL108W C-terminal 12 aa]

0.689
0.708

Tell me the measured protein stability index of LEEPYKPQRQRC [YPL088W C-terminal 12 aa] , please.
0.68

----------
Tested on: Saccharomyces cerevisiae
Assay details: protein stability index of tFT-peptide fusion (C-terminal peptide) (PSI (0-1 scale)); higher = more stable (slower turnover)
Study conditions: genetic background: das1 deletion; temperature: 30 C
Value type: protein stability index
Numbers only.

Please review the entries below; each comes with its answer.
- Seq: "YNKIRNNEKKMT"
  Numeric readout: 0.674
- Seq: "RLFSPPVLATPS"
  Numeric readout: 0.525
- Seq: "GFVSLFRLFIRL"
  Numeric readout: 0.352
- Seq: "VAVFFFCRVFFL"
  Numeric readout: 0.221
- Seq: "HPPPPPPPPSLS"
  Numeric readout: 0.666
- Seq: "LFFFLFSLLIFF"
  Numeric readout: 0.349

Give protein stability index for each listed item.
1. WWADRLVGVCIV
2. IACVLSIFLNAA

0.439
0.292
